Numbers sourced from paper PMC10400593.

Biological target: T1, Human Spindlin1 50-262 (human, UniProt Q9Y657 50-262)
T1 construct: also called SPIN1; not shown: GST, N-terminal, cleaved
T1 sequence (Q9Y657 50-262): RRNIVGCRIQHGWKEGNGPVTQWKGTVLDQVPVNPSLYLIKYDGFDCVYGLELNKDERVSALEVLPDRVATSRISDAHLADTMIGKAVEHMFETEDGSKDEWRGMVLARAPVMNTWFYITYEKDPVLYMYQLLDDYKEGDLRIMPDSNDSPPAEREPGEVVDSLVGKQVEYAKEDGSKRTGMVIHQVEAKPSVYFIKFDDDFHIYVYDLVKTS
Assay: ITC
Details: both partners purified
Where no end group is shown, it is not given here.
Cut-off 1 on stoichiometry N: below means 1, at or above means -1.

stdin: Identify whether the binder AARLCCQLDPARDVLCLRPV-NH2 (cysteine pairing not given here, source: synthetic peptide, bought: Scilight Biotechnology LLC) [HBx-D2-21 peptide] records stoichiometry N below 1.
stdout: 1

stdin: Identify whether the binder AARLCCQLDSARDVLLLRPF-NH2 (cysteine pairing not given here, also called FWHx; source: synthetic peptide, bought: Scilight Biotechnology LLC) [WHx2-21 peptide (woodchuck HBx)] records stoichiometry N below 1.
stdout: 1

stdin: Identify whether the binder AARLCCQLDSSRDVLLLRPL-NH2 (cysteine pairing not given here, source: synthetic peptide, bought: Scilight Biotechnology LLC) [GSHBx2-21 peptide (ground squirrel HBx)] records stoichiometry N below 1.
stdout: -1

stdin: Identify whether the binder Ac-PARDVLCLRPIGAESRGRPL-NH2 (source: synthetic peptide, bought: Scilight Biotechnology LLC) [HBx11-30 peptide] records stoichiometry N below 1.
stdout: -1
